Tested on: PDGF receptor
Test description: Surface plasmon resonance (SPR) binding test, Biacore T200
Details: PDGF receptor 400 ng/ml, CM5 chip
Measured property: binding to the PDGF receptor (SPR)

> print(dat)
                   polymer.sequence                   measured.property           value
1        NHPEDWPVYQEGC [Peptide 15]  binding to the PDGF receptor (SPR)  bound strongly
2  NRPEVTYPCSCEVKGEEDNS [Peptide 1]  binding to the PDGF receptor (SPR)  bound strongly
3         SFYNWTDNAELMN [Peptide 9]  binding to the PDGF receptor (SPR)  bound strongly

---

System: PDGF receptor
Test description: Real-time degree of binding using BLtz instrument (ForteBio)
Details: FIGS. 2A to 2I
Measured property: degree of binding to the PDGF receptor (BLtz)

> print(dat)
                   polymer.sequence                  value
1  NRPEVTYPCSCEVKGAAANS [Peptide 3]  weak binding affinity
2         SFYNWTDNAELMN [Peptide 9]           stably bound
3        NHPEDWPVYQEGC [Peptide 15]           stably bound
4  NRPEVTAPASCEVKGEEDNS [Peptide 2]  weak binding affinity

---

System: VEGF receptor
Test description: Surface plasmon resonance (SPR) binding test, Biacore T200
Details: VEGF receptor 200 ng/mL, CM5 chip
Measured property: binding to the VEGF receptor (SPR)

> print(dat)
                   polymer.sequence           value
1  NRPEVTYPCSCEVKGEEDNS [Peptide 1]  bound strongly
2         SFYNWTDNAELMN [Peptide 9]  bound strongly
3        NHPEDWPVYQEGC [Peptide 15]  bound strongly

---

Tested on: VEGF receptor
Test description: Real-time degree of binding using BLtz instrument (ForteBio)
Details: FIGS. 2A to 2I
Measured property: degree of binding to the VEGF receptor (BLtz)

> print(dat)
                   polymer.sequence  target.system                  value
1        NHPEDWPVYQEGC [Peptide 15]  VEGF receptor           stably bound
2         SFYNWTDNAELMN [Peptide 9]  VEGF receptor           stably bound
3  NRPEVTYPCSCEVKGAAANS [Peptide 3]  VEGF receptor  weak binding affinity
4  NRPEVTAPASCEVKGEEDNS [Peptide 2]  VEGF receptor  weak binding affinity
